Provenance of the data: paper PMC2710984

Catalogue of IC50 values
- TARGET_DESC: GST–BIR3 fusion protein (XIAP BIR3 domain)
- EXPERIMENTAL_DETAILS: FMAT bead-based fluorescence competition assay
Ends that are not written are not given here.
ENDPOINT_NAME: IC50 (nM)

binder="AVPIAQK-NH2 [Smac 7-mer peptide AVPIAQK (compound 1)]" endpoint_name=IC50 reported_value=390
binder="AIAY-NH2 [Grim 4-mer peptide AIAY (compound 8)]" endpoint_name=IC50 reported_value=340
binder="ALPF-NH2 [ALPF (compound 15)]" endpoint_name=IC50 reported_value=180
binder="AVPIA-NH2 [Smac 5-mer peptide AVPIA (compound 3)]" endpoint_name=IC50 reported_value=300
